Assay: chemical genetic growth profiling, strain panel (AID 1159580);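 further: tested at 20 µM; growth read once vehicle control cultures reached saturation at 30 °C; 1 = growth at the plate median or of vehicle wells; lower values mean less growth of the strain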
Details: S. cerevisiae deletion strains, growth OD, locus YKL203C, strain TOR2, hits give low values
The campaign covered roughly 5,500 compounds. About 2,000 (36%) were called active. Inconclusive results (about 18%) are left out. Some of the results follow.
normalized growth values for the compounds below.
Enter a number only.

Record excerpt, results attached:
* N/C(=N/O)c1ccc(Oc2ccc(C3SCCS3)cc2)c([N+](=O)[O-])c1 | 1.11
* O=C(Nc1cc(Cl)ccc1O)c1ccccc1CSc1ccc(Cl)cc1 | 0.784
* CCOC(=O)c1sc(S(C)=NC(=O)Nc2ccc(Cl)cc2)c2c1CCC=C2 (stereo unspecified) | 1.02
* Nc1ccc(Oc2ccc(Cl)cc2C2CCCCC2)nc1 | 0.92
* CC1CCC(C(C)C)C(N(Cc2ccccc2)C(=O)c2ccccc2)C1 (stereo unspecified) | 1.01
* Clc1ccc(CSc2nccn2-c2cc(Cl)ccc2Cl)cc1 | 0.915
* Cc1ccccc1/C=C/c1c[nH]c2ccccc12 | 0.989
* Cc1ccc(-c2nc(NS(=O)(=O)c3cccc4nonc34)sc2C)cc1Cl | 1.04
* O=S(=O)(Nc1csc(C(F)(F)F)c1-c1ccccc1)c1cc(Br)c(Br)s1 | 0.964
* CC1=CC(=O)N(c2ccc(F)c(Cl)c2)C1=O | 0.506

// switching to the query compound
Which normalized growth value is on record for Clc1cc(Cl)cc(C=NCc2ccccc2)c1 ? 0.691

---

Test: chemical genetic growth profiling, strain panel (AID 1159580);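 further: tested at 20 µM; growth read once vehicle control cultures reached saturation at 30 °C; 1 = growth at the plate median or of vehicle wells; lower values mean less growth of the strain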
Details: S. cerevisiae deletion strains, growth OD, locus YDL134C, strain PPH21
Out of some 5,500 compounds screened, about 2,000 (36%) were called active. Not shown: some 18% with an inconclusive outcome. Cut-off read from the data, not from the text of the source: active = normalized growth mostly below about 0.91 (no sharp cut-off); inconclusive = no clear call, values can overlap the other calls; inactive = mostly above about 0.92. This is one part of the list.
Your response should consist of one outcome taken from active, inactive

Use these answered entries as a reference point.
* C[C@]12CCC3c4ccc(O)cc4CCC3C1CCC2=O (stereo partly drawn) | inactive
* O=C1CCCCC/C=C/CCCCCCCCO1 | inactive
* CCCN(CCC)S(=O)(=O)c1ccc(C(=O)NCC(=O)O)cc1 | inactive
* NCCCNCCSP(=O)(O)O | inactive
* O=c1[nH]c(=O)n(C2C[C@H](O)[C@@H](CO)O2)cc1C(F)(F)F (stereo partly drawn) | inactive

What did the test return for O=C1CCCN1CC#CCN1CCCC1 ? inactive

Can you check O=C(O)CCC1NCC2CC1CN1CCCCC21 (stereo not drawn) next? inactive

Can you check FC(F)(F)Oc1ccccc1-c1nnc(-c2ccc(Cl)cc2)o1 next? inactive

Can you check C[C@]12CCC3c4ccc(OC(=O)CCC(=O)O)cc4CCC3C1CCC2=O (stereo partly drawn) next? inactive

Can you check NC(C(=O)O)C(O)C(=O)O (stereo not drawn) next? inactive

Can you check OCc1nccn1Cc1ccc(Cl)cc1 next? inactive

Can you check COc1ccc(-c2nc(-c3ccc(-c4ccccc4)cc3)cs2)cc1 next? active

Can you check CC(=O)C1CCC2C3CCC4C[C@H](O)CCC4(C)C3C[C@H](O)C12C (stereo partly drawn) next? inactive

---

Test: chemical genetic growth profiling, strain panel (AID 1159580);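 further: tested at 20 µM; growth read once vehicle control cultures reached saturation at 30 °C; 1 = growth at the plate median or of vehicle wells; lower values mean less growth of the strain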
Details: S. cerevisiae deletion strains, growth OD, locus YHR087W, strain rtc3
About 2,000 (36%) of roughly 5,500 compounds were called active. About 18% were inconclusive and are not listed. No stated cut-off is given here; in the data, active means normalized growth mostly below about 0.91 (no sharp cut-off); inconclusive means no clear call, values can overlap the other calls; inactive means mostly above about 0.92. This is one part of the list.
Your response should consist of one outcome taken from true = active, false = inactive

Use these answered entries as a reference point.
• c1ccc(-c2ccc(-c3csc(-c4cccnc4)n3)cc2)cc1 = false
• CCOC(=O)c1ccc(Oc2sccc2[N+](=O)[O-])cc1 = true
• O=C1c2ccccc2C2(c3ccccc3)NCCN12 (configuration not stated) = false
• O=S(=O)(NCC1CC1)c1ccc(F)c(Cl)c1 = false
• CC(=O)c1ccc(N2C(=O)CSCC2=O)cc1 = false

What did the test return for NC(N)=NC(N)=Nc1ccccc1C(F)(F)F ? false

Can you check O=c1oc2ccccc2cc1[N+](=O)[O-] next? true

Can you check O=C1C2C3C=CC(C3)C2C(=O)N1c1ccc(F)c(F)c1 (configuration not stated) next? false

Can you check O=C(Oc1ccc(Cl)cc1Cl)c1c(Cl)cccc1Cl next? false

Can you check O=S(=O)(NCc1ccc2c(c1)OCO2)c1ccc(F)c(Cl)c1 next? false

Can you check c1ccc(-c2csc(-c3cccnc3)n2)cc1 next? false

Can you check CCOC(=O)c1ccc(Oc2ccc(Cl)cc2Cl)c([N+](=O)[O-])c1 next? false
